- Measured on: T1, ASPP1 C-terminal domain (887-1090) (UniProt Q96KQ4 887-1090)
- T1 construct: also called ASPP1 CTD
- T1 sequence (looked up): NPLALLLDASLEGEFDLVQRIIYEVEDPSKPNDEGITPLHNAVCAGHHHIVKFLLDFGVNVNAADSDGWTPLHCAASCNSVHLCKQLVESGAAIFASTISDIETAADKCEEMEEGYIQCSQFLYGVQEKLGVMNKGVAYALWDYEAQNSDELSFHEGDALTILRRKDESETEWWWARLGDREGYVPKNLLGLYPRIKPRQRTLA
- Experiment: ITC; 450 or 300 uM NS5A PRR peptide (syringe) titrated to 30 uM ASPP CTD or SH3 domain (cell), 12 °C, 25 mM HEPES pH 7.5, 150 mM NaCl, 500 uM TCEP; 25 steps of 10 ul; AB hetero association model (SEDPHAT)
- Condition details: both partners purified
Measurement type: Kd (µM)
Write the number in µM without appending the unit.

Task: GET /values?readout=Kd&item= WLPPAKAPPIPPPRRKRTVVL (source: synthetic peptide, custom made (TUCF)) [HCV [1b.Con1] NS5A PRR peptide]
Result: 6.7

Task: # iterate: WLPPAKQPPVPSPRRKRTVQL (source: synthetic peptide, custom made (TUCF)) [HCV [4a.ED43] NS5A PRR peptide]
Result: 42.8

Task: # iterate: WLPPPKKAPTPPPRRRRTVGL (also called NS5A (2a); NS5A PRR peptide (JFH-1); source: synthetic peptide, custom made (TUCF)) [HCV [2a.JFH-1] NS5A PRR peptide]
Result: 3.78
